Below: a set of entries, each annotated with reported IC50.
Tested on: Cryptococcus neoformans
Experiment: Antifungal activity against Cryptococcus neoformans assessed as fungal growth inhibition
Type: functional, organism-based
Property name: IC50 (µM)

INSERT INTO assay_data (compound, property_name, unit_tag, experimental_value) VALUES
  ('C[N+](C)(C)CC(c1c[nH]c2cc(Br)ccc12)c1c(O)c(O)c2c3c(nccc13)C=CN2 (stereo not drawn)', 'IC50', 'µM', 0.5),
  ('Cn1cc(C(=O)c2nc(C(=O)O)cc3c2[nH]c2ccc(O)cc23)[n+](C)c1', 'IC50', 'µM', 11.4),
  ('CSc1c(-c2c(-c3c[nH]c4ccc(O)cc34)c(=O)n3c4ccc(O)cc4c4ccnc2c43)[n+](C)cn1C', 'IC50', 'µM', 7.9);
